# measurement.target: T1, mIL1RAcP-Fc (murine, UniProt Q61730 21-359)
# T1 construct: also called P013_04; P013-04
# T1 sequence (looked up): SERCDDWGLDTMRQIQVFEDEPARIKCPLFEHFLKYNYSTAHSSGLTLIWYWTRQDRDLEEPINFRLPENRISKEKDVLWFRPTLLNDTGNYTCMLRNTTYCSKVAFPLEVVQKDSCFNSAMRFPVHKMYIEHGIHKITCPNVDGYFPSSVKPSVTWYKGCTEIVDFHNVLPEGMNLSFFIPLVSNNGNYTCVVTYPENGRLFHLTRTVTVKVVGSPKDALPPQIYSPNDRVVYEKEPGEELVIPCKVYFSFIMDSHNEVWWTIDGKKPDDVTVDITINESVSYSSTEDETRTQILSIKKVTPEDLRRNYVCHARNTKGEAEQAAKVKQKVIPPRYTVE
# assay.summary: ELISA, primary supernatant, coated mu-IL-1RAcP-Fc
assay.metric: mu-IL1RaP ELISA (OD)

[[record]]
binder = "P013.S.02.B.D04 (antibody, V domains shown, rabbit monoclonal antibody; also called P013.A.00086.A06) VH: QSLEESGGDLVQPGGSLTLTCKASGFSFSASYWICWVRQAPGKGLEWIGCIYIGGGGRYYASWAKGRFTISKTSSTTVTLQMTSLTAADTATYFCARDPVTSGSDYVYDLWGPGTLVTVAS VL: AYDMTQTPASVEVAVGGTVTIKCQASESISTWLAWYQQKPGQPPNLLIYRASTLASGVPSRFYGSGYGTEFTLTISGVESADAATYYCQQGYTVNNIDNVFGGGTEVVVK"
meas_value = "0 OD"


Now look at this one.
Problem: mu-IL1RaP ELISA (OD) lookup needed for P013.S.02.B.D05 (antibody, V domains shown, rabbit monoclonal antibody; also called P013.A.00086.B09) VH: QQQLVESGGGLVKPGASLTLTCKASGFSFSSGYYMCWVRQAPGKGLEWIACIGMGSGKTYYASWAKGRFTISKTSSTTVTLQMTSLTAADTATYFCARKDGSGNEHYNLWGPGTLVTVSS VL: DIVMTQTPASVEAAVGGTVTIRCQASQSISSYLAWYQRKPGQPPKVLIYKASTLASGVSSRFKGSGSGTEYTLTISDLESADAATYYCQQGYASSGVDNVFGGGTEVVVK , thanks.
Result: 3.3 OD
